// provenance: patent US20260327232A1

# target: IRAK4 (Homo sapiens)
# test name: IRAK4 PhosphoSens Biochemical Assay (BIOCHEM)
# particulars: 200 μM ATP, 10 μM peptide substrate AQT0326, 1 nM IRAK4, room temperature, 240 minutes
pIC50: −log10 of the molar value.
Listing of entries alongside the reported pIC50.

compound	pIC50
CN(C[C@H]1CC[C@H](n2cc(NC(=O)c3cnn4ccc(N5CC[C@@H](c6ccn(C)n6)C5)nc34)c(C(F)F)n2)CC1)C1CCN(c2ccc3c(C4CCC(=O)NC4=O)nn(C)c3c2)CC1 (some centres unmarked)	8.62
CN(CC[C@H]1CC[C@H](n2cc(NC(=O)c3cnn4ccc(N5CCOCC5)nc34)c(C(F)F)n2)CC1)C1CCN(c2cccc3c(C4CCC(=O)NC4=O)nn(C)c23)CC1 (some centres unmarked)	9.10
CN(c1ccc2c(C3CCC(=O)NC3=O)nn(C)c2c1)C1CCN(C[C@H]2CC[C@H](n3cc(NC(=O)c4cnn5ccc(N6CCOCC6)nc45)c(C(F)F)n3)CC2)CC1 (some centres unmarked)	> 9.30
CN(C[C@H]1CC[C@H](n2cc(NC(=O)c3cnn4ccc(NCCN)nc34)c(C(F)F)n2)CC1)C1CCN(c2ccc3c(C4CCC(=O)NC4=O)nn(C)c3c2)CC1 (some centres unmarked)	> 9.30

Inquiry: Which pIC50 reading was recorded for the compound C[C@H]1CN(CCN2CCC(n3cc(NC(=O)c4cnn5ccc(N6C[C@H](N)C[C@@H](F)C6)nc45)c(C(F)F)n3)CC2)CCN1c1ccc2c(C3CCC(=O)NC3=O)nn(C)c2c1 (some centres unmarked) ?
Reply text: > 9.30

Inquiry: Which pIC50 reading was recorded for the compound Cn1nc(C2CCC(=O)NC2=O)c2ccc(N3CCN(C[C@H]4CC[C@H](n5cc(NC(=O)c6cnn7ccc(N8C[C@H](N)C[C@@H](F)C8)nc67)c(C(F)F)n5)CC4)CC3)cc21 (some centres unmarked) ?
Reply text: > 9.30

Inquiry: Which pIC50 reading was recorded for the compound Cn1nc(C2CCC(=O)NC2=O)c2ccc(C(=O)N3CCN(C[C@H]4CC[C@H](n5cc(NC(=O)c6cnn7ccc(N8C[C@H](N)C[C@@H](F)C8)nc67)c(C(F)F)n5)CC4)CC3)cc21 (some centres unmarked) ?
Reply text: > 9.30

Inquiry: Which pIC50 reading was recorded for the compound Cn1nc(C2CCC(=O)NC2=O)c2cccc(N3CCC(NC[C@H]4CC[C@H](n5cc(NC(=O)c6cnn7ccc(N8C[C@H](N)C[C@@H](F)C8)nc67)c(C(F)F)n5)CC4)CC3)c21 (some centres unmarked) ?
Reply text: > 9.30

* * *

# target: IRAK4 (Homo sapiens)
# test name: ALE THP1 HTRF (IRAK4 in THP1 cell lysates, Homogeneous Time Resolved Fluorescence)
# particulars: THP1 cells
pEC50: −log10 of the molar value. Structures can show the parent of a compound that is named as a salt.
observable: pEC50

Take a look at these entries with their results.
molecule	observable	recorded result
CN(CC1CCC(n2cc(NC(=O)c3cnn4ccc(N5C[C@H](N)C[C@@H](F)C5)nc34)c(C(F)F)n2)CC1)C1CCN(c2ccc3c(C4CCC(=O)NC4=O)nn(C)c3c2)CC1 (some centres unmarked)	pEC50	8.30
Cn1nc(C2CCC(=O)NC2=O)c2ccc(N3CCC(NC(=O)[C@H]4CC[C@H](n5cc(NC(=O)c6cnn7ccc(N8C[C@H](N)C[C@@H](F)C8)nc67)c(C(F)F)n5)CC4)CC3)cc21 (some centres unmarked) [P-4, hydrochloride]	pEC50	8.25
Cn1nc(C2CCC(=O)NC2=O)c2cccc(NC3CCN(C(=O)[C@H]4CC[C@H](n5cc(NC(=O)c6cnn7ccc(N8C[C@H](N)C[C@@H](F)C8)nc67)c(C(F)F)n5)CC4)CC3)c21 (some centres unmarked) [P-9, hydrochloride]	pEC50	8.40
Cn1nc(C2CCC(=O)NC2=O)c2cccc(NC3CCN(CCC4CCC(n5cc(NC(=O)c6cnn7ccc(N8C[C@H](N)C[C@@H](F)C8)nc67)c(C(F)F)n5)CC4)CC3)c21 (some centres unmarked) [P-7, bis-HCl salt]	pEC50	7.92
Cn1nc(C2CCC(=O)NC2=O)c2ccc(N3CCN(CCN4CCC(n5cc(NC(=O)c6cnn7ccc(N8C[C@H](N)C[C@@H](F)C8)nc67)c(C(F)F)n5)CC4)CC3)cc21 (some centres unmarked)	pEC50	8.22

A. Cn1nc(C2CCC(=O)NC2=O)c2ccc(NC3CCN(CC4CCC(n5cc(NC(=O)c6cnn7ccc(N8CC[C@H](F)[C@@H](N)C8)nc67)c(C(F)F)n5)CC4)CC3)cc21 (some centres unmarked)
B. Cc1ccc(Nc2ccn3ncc(C(=O)Nc4cn([C@H]5CC[C@H](CN(C)C6CCN(c7ccc8c(C9CCC(=O)NC9=O)nn(C)c8c7)CC6)CC5)nc4C(F)F)c3n2)cn1 (some centres unmarked)
C. Cn1nc(C2CCC(=O)NC2=O)c2ccc(N[C@@H]3CCN(CC4CCC(n5cc(NC(=O)c6cnn7ccc(N8C[C@H](N)C[C@@H](F)C8)nc67)c(C(F)F)n5)CC4)C[C@H]3F)cc21 (some centres unmarked)
Inquiry: Provide the items ranked by increasing pEC50. Please list each label once, in the requested order.
Reply text: B, C, A

1. Cn1nc(C2CCC(=O)NC2=O)c2ccc(OC3CCN(C[C@H]4CC[C@H](n5cc(NC(=O)c6cnn7ccc(N8C[C@H](N)C[C@@H](F)C8)nc67)c(C(F)F)n5)CC4)CC3)cc21 (some centres unmarked)
2. Cn1nc(C2CCC(=O)NC2=O)c2ccc(N3CCC(NC[C@H]4CC[C@H](n5cc(NC(=O)c6cnn7ccc(N8C[C@H](N)C[C@@H](F)C8)nc67)c(C(F)F)n5)CC4)CC3)cc21 (some centres unmarked) [P-5, dihydrochloride]
Inquiry: Two entries are listed, 1 and 2 . Which one carries the higher pEC50? # respond with the chosen item's label
Reply text: 2

* * *

# target: UniProtKB Q9NWZ3
# test name: IRAK4 PhosphoSens Biochemical Assay (BIOCHEM)
# particulars: 200 μM ATP, 10 μM peptide substrate AQT0326, 1 nM IRAK4, room temperature, 240 minutes
Listing of entries alongside the reported IC50.

Take a look at these entries with their results.
compound	IC50
CN(CC1CCC(n2cc(NC(=O)c3cnn4ccc(N5C[C@H](N)C[C@@H](F)C5)nc34)c(C(F)F)n2)CC1)C1CCN(c2cccc3c(C4CCC(=O)NC4=O)nn(C)c23)CC1 (stereo partly drawn) [P-30]	< 0.5 nM
CN(c1cccc2c(C3CCC(=O)NC3=O)nn(C)c12)C1CCN(CCC2CCC(n3cc(NC(=O)c4cnn5ccc(N6CCOCC6)nc45)c(C(F)F)n3)CC2)CC1 (stereo not drawn) [P-39]	< 0.5 nM

Inquiry: # value lookup — system UniProtKB Q9NWZ3, readout IC50, item Cn1nc(C2CCC(=O)NC2=O)c2ccc(NC3CCN(CC4CCC(n5cc(NC(=O)c6cnn7ccc(N8CC[C@H](F)[C@@H](N)C8)nc67)c(C(F)F)n5)CC4)CC3)cc21 (stereo partly drawn) [P-18]
Reply text: < 0.5 nM

* * *

Listing of entries alongside the reported EC50.
# target: IRAK4 (Homo sapiens)
# Sequence (Q9NWZ3 1-460): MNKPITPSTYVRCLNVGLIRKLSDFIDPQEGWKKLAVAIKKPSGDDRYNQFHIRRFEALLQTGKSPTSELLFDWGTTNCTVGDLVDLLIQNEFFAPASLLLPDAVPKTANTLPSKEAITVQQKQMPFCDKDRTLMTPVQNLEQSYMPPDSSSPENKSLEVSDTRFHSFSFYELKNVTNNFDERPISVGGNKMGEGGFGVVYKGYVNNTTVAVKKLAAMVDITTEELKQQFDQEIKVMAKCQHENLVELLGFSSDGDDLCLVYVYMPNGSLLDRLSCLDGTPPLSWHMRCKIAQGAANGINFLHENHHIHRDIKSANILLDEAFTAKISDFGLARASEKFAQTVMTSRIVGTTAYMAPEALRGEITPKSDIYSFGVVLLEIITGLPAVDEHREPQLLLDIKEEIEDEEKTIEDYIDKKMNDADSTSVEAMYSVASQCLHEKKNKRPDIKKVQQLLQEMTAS
# test name: ALE THP1 HTRF (IRAK4 in THP1 cell lysates, Homogeneous Time Resolved Fluorescence)
# particulars: THP1 cells

Take a look at these entries with their results.
molecule	EC50
Cn1nc(C2CCC(=O)NC2=O)c2ccc(NC3CCN(C(=O)[C@H]4CC[C@H](n5cc(NC(=O)c6cnn7ccc(N8C[C@H](N)C[C@@H](F)C8)nc67)c(C(F)F)n5)CC4)CC3)cc21 (stereo partly shown)	> 10 µM
Cn1nc(C2CCC(=O)NC2=O)c2ccc(NC3CCN(CC4CCC(n5cc(NC(=O)c6cnn7ccc(N8CC[C@@H](F)[C@@H](N)C8)nc67)c(C(F)F)n5)CC4)CC3)cc21 (stereo partly shown)	> 10 µM
CN(C)c1ccn2ncc(C(=O)Nc3cn([C@H]4CC[C@H](CN(C)C5CCN(c6ccc7c(C8CCC(=O)NC8=O)nn(C)c7c6)CC5)CC4)nc3C(F)F)c2n1 (stereo partly shown)	> 10 µM
Cn1nc(C2CCC(=O)NC2=O)c2ccc(N3CCN(C[C@H]4CC[C@H](n5cc(NC(=O)c6cnn7ccc(N8C[C@H](N)C[C@@H](F)C8)nc67)c(C(F)F)n5)CC4)CC3)cc21 (stereo partly shown)	> 10 µM
Cn1nc(C2CCC(=O)NC2=O)c2cccc(N3CCC(NC(=O)[C@H]4CC[C@H](n5cc(NC(=O)c6cnn7ccc(N8C[C@H](N)C[C@@H](F)C8)nc67)c(C(F)F)n5)CC4)CC3)c21 (stereo partly shown)	0.005 µM
C[C@@H]1CN(CCN2CCC(n3cc(NC(=O)c4cnn5ccc(N6C[C@H](N)C[C@@H](F)C6)nc45)c(C(F)F)n3)CC2)CCN1c1ccc2c(C3CCC(=O)NC3=O)nn(C)c2c1 (stereo partly shown)	0.005 µM
CN(C[C@H]1CC[C@H](n2cc(NC(=O)c3cnn4ccc(N5CCOC5)nc34)c(C(F)F)n2)CC1)C1CCN(c2ccc3c(C4CCC(=O)NC4=O)nn(C)c3c2)CC1 (stereo partly shown)	> 10 µM
CN(c1cccc2c(C3CCC(=O)NC3=O)nn(C)c12)C1CCN(CCC2CCC(n3cc(NC(=O)c4cnn5ccc(N6CCOCC6)nc45)c(C(F)F)n3)CC2)CC1 (stereo not shown)	> 10 µM
CN(CC[C@H]1CC[C@H](n2cc(NC(=O)c3cnn4ccc(N5CCOCC5)nc34)c(C(F)F)n2)CC1)C1CCN(c2ccc3c(C4CCC(=O)NC4=O)nn(C)c3c2)CC1 (stereo partly shown)	> 10 µM

Pending molecule:
Inquiry: Which EC50 reading was recorded for the molecule CN(CC1CCC(n2cc(NC(=O)c3cnn4ccc(N5C[C@H]6CC[C@@H](C5)O6)nc34)c(C(F)F)n2)CC1)C1CCN(c2ccc3c(C4CCC(=O)NC4=O)nn(C)c3c2)CC1 (stereo partly shown) ?
Reply text: > 10 µM
